- SYSTEM_TESTED: Neprilysin (Homo sapiens, UniProt P08473)
- Sequence (P08473 whole entry): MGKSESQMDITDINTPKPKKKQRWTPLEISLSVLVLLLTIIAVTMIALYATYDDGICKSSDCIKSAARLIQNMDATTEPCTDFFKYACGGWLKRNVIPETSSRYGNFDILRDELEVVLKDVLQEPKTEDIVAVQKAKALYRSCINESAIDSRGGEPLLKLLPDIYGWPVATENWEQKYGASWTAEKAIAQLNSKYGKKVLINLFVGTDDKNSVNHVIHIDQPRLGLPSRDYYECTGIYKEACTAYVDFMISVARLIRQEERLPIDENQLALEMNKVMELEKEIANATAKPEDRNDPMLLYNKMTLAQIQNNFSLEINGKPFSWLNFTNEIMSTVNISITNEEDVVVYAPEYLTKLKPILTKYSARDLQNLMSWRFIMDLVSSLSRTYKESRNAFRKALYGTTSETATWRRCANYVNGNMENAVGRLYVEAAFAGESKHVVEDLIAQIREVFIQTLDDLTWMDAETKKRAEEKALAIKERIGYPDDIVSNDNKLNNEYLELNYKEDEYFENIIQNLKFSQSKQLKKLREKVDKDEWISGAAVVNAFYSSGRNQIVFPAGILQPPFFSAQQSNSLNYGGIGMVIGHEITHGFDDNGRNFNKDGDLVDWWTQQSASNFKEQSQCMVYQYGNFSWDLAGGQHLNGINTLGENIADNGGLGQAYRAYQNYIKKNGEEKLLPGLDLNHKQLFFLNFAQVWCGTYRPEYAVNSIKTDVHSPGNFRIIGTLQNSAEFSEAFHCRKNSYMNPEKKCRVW
ATTRIBUTE_MEASURED: pIC50
Worth noting: pIC50 values are minus log10 of concentrations stated in mol/L.

Request: Would you mind telling me what pIC50 value was observed for O=C(N[C@H]1CCS[C@H]2CCC[C@@H](C(=O)O)N2C1=O)[C@@H](S)Cc1ccccc1 ?
Result: 9.70

====

- SYSTEM_TESTED: Angiotensin-converting enzyme (Homo sapiens)
- Sequence (P12821 whole entry): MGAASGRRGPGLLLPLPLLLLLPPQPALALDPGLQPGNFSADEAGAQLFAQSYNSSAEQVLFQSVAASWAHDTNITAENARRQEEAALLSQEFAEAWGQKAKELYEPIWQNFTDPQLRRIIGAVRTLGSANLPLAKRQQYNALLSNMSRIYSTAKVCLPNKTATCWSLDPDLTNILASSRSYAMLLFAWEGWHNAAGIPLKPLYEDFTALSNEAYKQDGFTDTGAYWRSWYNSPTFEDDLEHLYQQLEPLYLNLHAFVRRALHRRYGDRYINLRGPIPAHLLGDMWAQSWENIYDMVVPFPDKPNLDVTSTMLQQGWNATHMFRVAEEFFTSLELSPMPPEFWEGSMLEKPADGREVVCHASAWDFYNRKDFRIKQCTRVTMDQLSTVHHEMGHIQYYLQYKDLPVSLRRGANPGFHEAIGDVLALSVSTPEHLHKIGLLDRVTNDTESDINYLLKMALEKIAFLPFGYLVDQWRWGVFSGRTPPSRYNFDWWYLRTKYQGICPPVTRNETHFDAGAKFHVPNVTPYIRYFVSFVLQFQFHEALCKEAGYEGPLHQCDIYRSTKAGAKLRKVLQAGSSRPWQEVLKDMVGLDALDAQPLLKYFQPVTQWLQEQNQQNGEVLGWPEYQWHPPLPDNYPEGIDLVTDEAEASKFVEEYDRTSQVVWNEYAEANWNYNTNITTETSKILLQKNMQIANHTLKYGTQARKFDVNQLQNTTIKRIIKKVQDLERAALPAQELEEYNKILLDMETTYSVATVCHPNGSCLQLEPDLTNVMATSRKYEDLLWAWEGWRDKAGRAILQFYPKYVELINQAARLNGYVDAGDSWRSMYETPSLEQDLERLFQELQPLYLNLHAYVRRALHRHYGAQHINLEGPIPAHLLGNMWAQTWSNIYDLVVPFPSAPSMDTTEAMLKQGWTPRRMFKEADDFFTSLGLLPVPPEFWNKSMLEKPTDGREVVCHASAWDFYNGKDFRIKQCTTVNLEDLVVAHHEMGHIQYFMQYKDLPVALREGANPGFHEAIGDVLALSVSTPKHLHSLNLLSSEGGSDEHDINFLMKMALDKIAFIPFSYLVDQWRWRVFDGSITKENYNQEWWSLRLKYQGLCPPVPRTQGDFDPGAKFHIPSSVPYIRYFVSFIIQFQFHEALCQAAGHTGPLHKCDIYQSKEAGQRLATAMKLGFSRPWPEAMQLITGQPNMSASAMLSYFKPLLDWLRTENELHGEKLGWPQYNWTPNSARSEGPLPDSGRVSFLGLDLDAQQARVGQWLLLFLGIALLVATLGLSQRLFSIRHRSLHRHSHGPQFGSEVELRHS
- TEST_NAME: Inhibition of recombinant human ACE using Mca-BK2 as substrate preincubated for 10 mins followed by fluorogenic substrate addition and measured after 20 mins by fluorescence assay
ATTRIBUTE_MEASURED: pIC50
Worth noting: pIC50 values are minus log10 of concentrations stated in mol/L.

Request: Would you mind telling me what pIC50 value was observed for O=C(N[C@H]1CCS[C@H]2CCC[C@@H](C(=O)O)N2C1=O)[C@@H](S)Cc1ccccc1 ?
Result: 10.00
